Below, each entry is listed with its recorded melting point.

Below, each entry is followed by its recorded melting point result.
// query Record request: melting point value, item Cc1csc(-c2nc(NC(=O)c3ccccc3)[nH]c2-c2ccc3c(c2)OCO3)n1
// result 223 to 225 °C

// query Record request: melting point value, item Cc1csc(-c2nc(CNC(=O)C3CCCC3)[nH]c2-c2ccc3ncsc3c2)n1
// result 156.5 to 161 °C

// below: melting point requested for another compound
// query Record request: melting point value, item Cc1csc(-c2nc(CCC(=O)NCCN3CCCC3)[nH]c2-c2ccc3ncsc3c2)n1
// result 171 to 173 °C

----------
- Tested on: Smad2/3 phosphorylation caused by TGF-β1 stimulation
- procedure-text: Smad2/3 phosphorylation inhibitory activity test
- Type: cell-based
- condition-parameters: Homo sapiens; A549 cells; compound 2 hours before TGF-β1 1 ng/ml, 1 hour; anti-Smad2/3 immunoprecipitation, Western blotting
pIC50: −log10 of the molar value.
value-kind: pIC50

// query Record request: pIC50 value, item CCCCc1nc(-c2nc(C)cs2)c(-c2ccc3ncsc3c2)[nH]1 [Compound 57]
// result 7.35

I. COC(=O)NCc1nc(-c2nc(C)cs2)c(-c2ccc3ncsc3c2)[nH]1 [Compound 186]
II. Cc1csc(-c2nc(-c3ccc(C(N)=O)cc3)[nH]c2-c2ccc3ncsc3c2)n1 [Compound 50]
// query Of the two listed items, which has the higher pIC50? First: I Second: II I would appreciate it if you answered with the label of your choice.
// result I
(I: 7.42, II: 7.10)

----------
value-kind: melting point

Below, each entry is followed by its recorded melting point result.
// query Record request: melting point value, item NC(=O)c1ccc(-c2nc(-c3nc(Br)cs3)c(-c3ccc4c(c3)OCO4)[nH]2)cc1 [Compound 13]
// result 273 to 275.5 °C

// query Record request: melting point value, item Cc1csc(-c2nc(CCC(=O)NCCN3CCCCC3)[nH]c2-c2ccc3ncsc3c2)n1 [Compound 151]
// result 114 to 119 °C

// query Record request: melting point value, item Cc1csc(-c2nc(-c3ccc(C(N)=O)cc3)[nH]c2-c2ccc(O)cc2)n1 [Compound 49]
// result > 300 °C

// query Record request: melting point value, item Cc1csc(-c2nc(C3CCC(=O)N3)[nH]c2-c2ccc3ncsc3c2)n1 (stereo not drawn) [Compound 230]
// result 263 to 268 °C (dec.)

// query Record request: melting point value, item Cc1csc(-c2nc(CNC(=O)COCCO)[nH]c2-c2ccc3ncsc3c2)n1 [Compound 126]
// result 193 to 194 °C

---
// query Record request: melting point value, item CCCCNC(=O)NCc1nc(-c2nc(C)cs2)c(-c2ccc3ncsc3c2)[nH]1 [Compound 179]
// result 190.5 to 191.5 °C
